Assay: Pharmacokinetic study in rats after oral administration (HPLC-MS/MS)
Type: in vivo, Sprague–Dawley (SD) rats
Settings: male, Sprague-Dawley, rat, in vivo, mogroside V 200 mg/kg or LHG extract 12.5 ml/kg, mogroside V in plasma
parameter: Cmax (ng/mL)
Expressed in ng/mL, but write only the number.

Qu. State the recorded Cmax for this entry: C[C@H](CC[C@@H](O[C@@H]1O[C@H](CO[C@@H]2O[C@H](CO)[C@@H](O)[C@H](O)[C@H]2O)[C@@H](O)[C@H](O)[C@H]1O[C@@H]1O[C@H](CO)[C@@H](O)[C@H](O)[C@H]1O)C(C)(C)O)[C@H]1CC[C@@]2(C)[C@@H]3CC=C4[C@@H](CC[C@H](O[C@@H]5O[C@H](CO[C@@H]6O[C@H](CO)[C@@H](O)[C@H](O)[C@H]6O)[C@@H](O)[C@H](O)[C@H]5O)C4(C)C)[C@]3(C)[C@H](O)C[C@]12C [Mogroside V]
Ans. 1330

These data points were gathered from paper PMC6707405.
